The reported numbers originate from PubChem BioAssay (NCI).

Each item that follows carries a reported GI50.
- System: SF-295 CNS
- assay-comment: NCI tumour cell line growth inhibition, 48 h
property-name: GI50

[[record]]
compound = "Cc1ccc2c(c1)c1nc3cc(C)c(C)cc3nc1n2CCN(C)C"
study_system = "SF-295 CNS"
property_name = "GI50"
result = "2.37 µM"

[[record]]
compound = "O=c1c2c3c(sc2n2c(-c4cc(-c5ccccc5)no4)nnc2n1Cc1ccccc1)CCCC3"
study_system = "SF-295 CNS"
property_name = "GI50"
result = "6.53 µM"

[[record]]
compound = "O=c1c2ccccc2c(Br)c(Br)c2ccccc12"
study_system = "SF-295 CNS"
property_name = "GI50"
result = "17.1 µM"

[[record]]
compound = "Oc1ccc(CN2CCC(N3CCOCC3)CC2)c2cccnc12"
study_system = "SF-295 CNS"
property_name = "GI50"
result = "39.8 µM"

[[record]]
compound = "c1ccc(C2CC(c3cccc(Nc4ccncc4)c3)=NN2c2ccccc2)cc1 (stereo not given)"
study_system = "SF-295 CNS"
property_name = "GI50"
result = "1.72 µM"


----------
- Tested on: OVCAR-8 ovarian
- assay-comment: NCI tumour cell line growth inhibition, 48 h; in the data active = GI50 below about 0.43 µM; inactive = the rest
Outcome codes: active, inactive

[[record]]
molecule = "Cc1ccc2c(c1)c1nc3cc(C)c(C)cc3nc1n2CCN(C)C"
discrete_label = "inactive"

[[record]]
molecule = "CCCCCc1nc2c(c3c1CCCC3)CCCC2"
discrete_label = "inactive"

[[record]]
molecule = "COc1cc(-c2nc3sccn3c2-c2ccnc(NCCNS(=O)(=O)c3ccc(Cl)cc3)n2)ccc1F"
discrete_label = "inactive"

[[record]]
molecule = "CC(C)Nc1ccc(Nc2ccccc2)cc1"
discrete_label = "inactive"

[[record]]
molecule = "Nc1ncnc2c1ncn2Cc1ccc(C23CC4CC(CC(C4)C2)C3)c(OCc2cc(F)c(F)cc2F)c1"
discrete_label = "inactive"

[[record]]
molecule = "[Cl][Sn]([Cl])([c]1ccccc1)[c]1ccccc1"
discrete_label = "inactive"

[[record]]
molecule = "CC(C)(O)C#Cc1ccc(/C=C/C(=O)c2ccccc2)s1"
discrete_label = "inactive"

[[record]]
molecule = "N=C(N)c1ccc(OCCOCCOc2ccc(C(=N)N)cc2)cc1"
discrete_label = "inactive"

[[record]]
molecule = "C/C=C/C/C=C/CCC(=O)[C@H]1O[C@H]1C(N)=O"
discrete_label = "inactive"

[[record]]
molecule = "CN(CCCCCl)P(=O)(OCc1ccc([N+](=O)[O-])o1)OCC1OC(n2ccc(N)nc2=O)C(F)(F)C1O (stereo not given)"
discrete_label = "active"


----------
- System: OVCAR-3 ovarian
- assay-comment: NCI tumour cell line growth inhibition, 48 h
property-name: TGI

[[record]]
compound = "Cc1ccc(NP(=O)(Oc2ccccc2)N(CCCl)CCCl)cc1 (centres undefined)"
study_system = "OVCAR-3 ovarian"
result = "> 100 µM"

[[record]]
compound = "COc1cc(-n2cc(-c3ccc(F)cc3)nc2SCc2ccccc2)cc(OC)c1OC"
study_system = "OVCAR-3 ovarian"
result = "> 100 µM"

[[record]]
compound = "CC(C)(O)C#Cc1ccc(/C=C/C(=O)c2ccccc2)s1"
study_system = "OVCAR-3 ovarian"
result = "31.5 µM"

[[record]]
compound = "COc1ccc(/C=C2\\C(=O)N(C)C(=O)c3cc(OC)c(OC)cc32)cc1OC"
study_system = "OVCAR-3 ovarian"
result = "> 100 µM"

